System: M14
assay details: NCI tumour cell line growth inhibition, 48 h
Activity calls are given as the source filed them. Cut-off read from the data, not from the text of the source: active = GI50 up to about 1.1 µM and inactive = higher.
Quick list: GI50 per entry.

compound=Cc1ccc2nc(N)[nH]c(=O)c2c1Sc1ccncc1 result="8.63 µM (inactive)"

Query: I am curious: what GI50 value has been reported for O=C(NCCNCCO)N/N=C/c1ccc(Cl)cc1 ?
Result: > 100 µM (inactive)

Query: What does the data say about its GI50? Entry: COC(=O)NN1C(C)=C(C(=O)OC)C2(CCOC2=O)C1(C)O (stereo not given)
Result: > 100 µM (inactive)

Query: Could you tell me which GI50 is on file for C#C[C@]1(O)CC[C@H]2[C@@H]3CCC4=C/C(=N/NC(=O)c5cccc6c(=O)c7ccccc7[nH]c56)CCC4[C@H]3CC[C@@]21C (stereo not given in full) ?
Result: 59.8 µM (inactive)

Query: Consider the compound O=P(Oc1ccccc1)(Oc1ccccc1)Oc1c[nH]c2ccccc12 and give its measured GI50.
Result: 11.3 µM (inactive)

Query: Requested read-out: GI50. Entry: COP(=O)(OC)c1ccc(NCc2cc(O)ccc2O)cc1
Result: 13.8 µM (inactive)

Query: May I ask what GI50 has been recorded for C=C1C(=O)O[C@@H]2C(=O)[C@@H](C)CCC/C(C)=C/CC[C@@]3(C)O[C@@H]3C[C@@H]12 ?
Result: 54.2 µM (inactive)

Query: Give the measured GI50 of O=c1cc(-c2ccccc2)oc2ccc(Oc3nnnn3-c3ccccc3)cc12 .
Result: > 100 µM (inactive)

Query: Reported GI50, compound CC12CP(=O)(c3ccccc3)CC1c1ccccc1C2c1ccccc1 (stereo not given) : ____
Result: 17.5 µM (inactive)

Query: Request the reported GI50 associated with Cc1cc2c(cc1C)N1Cc3c(ccc(C)c3C)N(C2)C1.Cc1cc2c(cc1C)N1Cc3cc(C)c(C)cc3N(C2)C1
Result: > 100 µM (inactive)
